tested on: MDA-MB-231 breast; experiment: NCI-60 one-dose screen, 48 h; conditions: 10 µM unless noted
Compounds without any hit were thinned out: in the full panel of roughly 83,000, 20% have a hit. Active and inactive are the calls of the source. Rule for the calls: active = growth percent below 10; inactive = the rest.
Select the matching outcome among active, inactive

compound | group
CC12CCC(=O)C=C1CCC1C2CCC2(C)C(C(=O)COC(=O)Cc3ccc(N(CCCl)CCCl)cc3)CCC12 (configuration not stated) | inactive
CC1(C)N=C(N)N=C(N)N1c1ccc(CCC(=O)Nc2cccc(S(=O)(=O)F)c2)cc1 | inactive
COP(=S)(OC)Oc1ccc(SC)c(C)c1 | inactive
C[C@]12CC[C@@H]3C4=C(CC[C@H]3[C@@H]1CC[C@@H]2O)CC(=O)CC4 | inactive
C[CH2][Pb]([CH2]C)([CH2]C)[O]C(=O)c1ccc(N)cc1 | inactive
NC(=O)C(Br)CBr (configuration not stated) | inactive

Q. I would be grateful if you could indicate the recorded call for Clc1ccc(SSC(Cl)(Cl)Cl)cc1 .
A. inactive

Q. I would be grateful if you could indicate the recorded call for COc1cccc2c1C(=O)c1c(O)c3c(c(O)c1C2=O)CC(O)(/C(C)=N/NC(=O)CCC(=O)N/N=C(\C)C1(O)Cc2c(O)c4c(c(O)c2C(OC2CC(N)C(O)C(C)O2)C1)C(=O)c1c(OC)cccc1C4=O)CC3OC1CC(N)C(O)C(C)O1 (configuration not stated) .
A. active

Q. I would be grateful if you could indicate the recorded call for C=CCC1(CC)C(=O)NC(=S)NC1=O .
A. inactive

Q. I would be grateful if you could indicate the recorded call for COc1ccc(-c2ccc(OC)c(OC)c2OC)cc1 .
A. inactive

Q. I would be grateful if you could indicate the recorded call for CCOc1cc(C=C(C#N)C#N)cc(Br)c1O .
A. inactive

Q. I would be grateful if you could indicate the recorded call for CC(=O)[O][Hg][CH2]C1(C)COC(C)([CH2][Hg][O]C(C)=O)CO1 (configuration not stated) .
A. inactive

Q. I would be grateful if you could indicate the recorded call for Cc1cc(CCl)c(C)cc1CCl .
A. inactive

Q. I would be grateful if you could indicate the recorded call for CCOC(=O)/C=C(\C)Nc1ccc(N/C(C)=C/C(=O)OCC)c2c1Oc1ccccc1O2 .
A. inactive

Q. I would be grateful if you could indicate the recorded call for CC12CC[C@H](O)C=C1/C(=N/O)CC1C2CCC2(C)C1CC[C@@H]2O (some centres not stated) .
A. inactive

These data points were gathered from PubChem BioAssay (NCI).
